# Test system: HCV 1b genotype
# Test name: HCV Replicon assay (HCV 1b genotype)
# Format: cell-based, Hepatitis C virus
# Condition notes: Hepatitis C virus; HCV 1b genotype replicon; Effective 50% inhibitory concentration; read-out: 1b EC50
# Experimental: An HCV Replicon assay was utilized in the present disclosure, and was prepared, conducted and validated as described in commonly owned PCT/US2006/022197 and in O'Boyle et. al. Antimicrob Agents Chemother. 2005 April; 49(4):1346-53. Assay methods incorporating luciferase reporters have also been used as described (Apath.com). HCV-neo replicon cells and replicon cells containing mutations in the NS5A region were used to test the currently described family of compounds. […]
Measured metric: EC50 (pM)
Numeric answer only, unit pM assumed.

Worked set:
Structure as smiles	EC50, pM
COC(=O)N[C@H](C(=O)N1[C@@H]2C[C@@H]2C[C@H]1c1nc(-c2ccc(/C=C/c3ccc(-c4c[nH]c([C@@H]5C[C@H]6C[C@H]6N5C(=O)[C@@H](NC(=O)OC)C5CCOCC5)n4)cc3)cc2)c[nH]1)C1CCOCC1	17
COC(=O)N[C@@H](C(=O)N1[C@@H]2C[C@@H]2C[C@H]1c1ncc(-c2ccc(C#Cc3ccc4c(ccc5nc([C@@H]6C[C@H]7C[C@H]7N6C(=O)[C@H](NC(=O)OC)c6ccccc6)[nH]c54)c3)cc2)[nH]1)c1ccccc1	5
COC(=O)N[C@H](C(=O)N1C[C@@H](C)C[C@H]1c1ncc(-c2ccc(C#Cc3ccc(-c4cnc([C@@H]5C[C@H](C)CN5C(=O)[C@@H](NC(=O)OC)C5CCOCC5)[nH]4)cc3)cc2)[nH]1)C1CCOCC1	14

Moving on to the next compound.
Look up EC50 of `COC(=O)N[C@H](C(=O)N1CCC[C@H]1c1nc(-c2cccc(C#Cc3cccc(-c4c[nH]c([C@@H]5CCCN5)n4)c3)c2)c[nH]1)C(C)C` and report it.
339000

----------
# Test system: HCV 1b genotype
# Test name: HCV Replicon assay (HCV 1b genotype)
# Format: cell-based, Hepatitis C virus
# Condition notes: Hepatitis C virus; HCV 1b genotype replicon; class symbol; read-out: Range (EC50 values against HCV 1b)
pEC50: −log10 of the molar value.
Measured metric: pEC50

Structure as smiles	pEC50
COC(=O)N[C@H](C(=O)N1[C@@H]2C[C@@H]2C[C@H]1c1nc(-c2ccc(/C=C/c3ccc(-c4c[nH]c([C@@H]5C[C@H]6C[C@H]6N5C(=O)[C@@H](NC(=O)OC)C5CCOCC5)n4)cc3)cc2)c[nH]1)C1CCOCC1	10.00 to 11.70

Moving on to the next compound.
Look up pEC50 of `COC(=O)N[C@@H](C(=O)N1CCC[C@H]1c1nc(-c2ccc(Oc3ccc(-c4c[nH]c([C@@H]5CCCN5C(=O)[C@H](NC(=O)OC)c5ccccc5)n4)cc3)cc2)c[nH]1)c1ccccc1` and report it.
8.00 to 9.00

----------
# Test system: HCV 1b genotype
# Test name: HCV Replicon assay (HCV 1b genotype)
# Assay type: cell-based, Hepatitis C virus
# Condition notes: Hepatitis C virus; HCV 1b genotype replicon; class symbol; read-out: Range (EC50 values against HCV 1b)
Measured metric: EC50

Look up EC50 of `CN(C)[C@@H](C(=O)N1CCC[C@H]1c1ncc(-c2ccc(COc3ccc(-c4cnc([C@@H]5CCCN5C(=O)[C@@H](c5ccccc5)N(C)C)[nH]4)cc3)cc2)[nH]1)c1ccccc1` and report it.
0.002 to 0.099 nM

Look up EC50 of `COC(=O)N[C@H](C(=O)N1[C@@H]2C[C@@H]2C[C@H]1c1nc(-c2ccc(/C=C/c3ccc(-c4c[nH]c([C@@H]5C[C@H]6C[C@H]6N5C(=O)[C@@H](NC(=O)OC)C5CCOCC5)n4)cc3)cc2)c[nH]1)C(C)C` and report it.
0.002 to 0.099 nM

Look up EC50 of `O=C([C@H](O)c1ccccc1)N1CCC[C@H]1c1nc(-c2ccc(COCc3cccc(-c4c[nH]c([C@@H]5CCCN5C(=O)[C@H](O)c5ccccc5)n4)c3)cc2)c[nH]1` and report it.
0.1 to 0.99 nM

Look up EC50 of `COC(=O)N[C@H](C(=O)N1[C@@H]2C[C@@H]2C[C@H]1c1ncc(-c2cccc(C#Cc3cccc(-c4cnc([C@@H]5C[C@H]6C[C@H]6N5C(=O)[C@@H](NC(=O)OC)C5CCOCC5)[nH]4)c3)c2)[nH]1)C1CCOCC1` and report it.
0.002 to 0.099 nM

Look up EC50 of `COC(=O)N[C@H](C(=O)N1CC(F)(F)C[C@H]1c1ncc(-c2ccc(C#Cc3ccc(-c4cnc([C@@H]5CC(F)(F)CN5C(=O)[C@H](NC(=O)OC)C5CCOCC5)[nH]4)cc3)cc2)[nH]1)C1CCOCC1` and report it.
10 to 350 nM

----------
Here the recorded pEC50 is given for each entry.
# Test system: HCV 1b genotype
# Test name: HCV Replicon assay (HCV 1b genotype)
# Format: cell-based, Hepatitis C virus
# Condition notes: Hepatitis C virus; HCV 1b genotype replicon; class symbol; read-out: Range (EC50 values against HCV 1b)
pEC50: −log10 of the molar value.

Worked set:
Compound	Measured metric	Experimental result
COC(=O)N[C@@H](C(=O)N1CCC[C@H]1c1nc(-c2ccc(CCc3ccc(-c4c[nH]c([C@@H]5CCCN5C(=O)[C@H](NC(=O)OC)c5ccccc5)n4)cc3)cc2)c[nH]1)c1ccccc1 [OL-11]	pEC50	10.00 to 11.70
COC(=O)N[C@@H](C(=O)N1CCC[C@H]1c1nc(-c2ccc(C#Cc3ccc(-c4c[nH]c([C@@H]5CCCN5C(=O)[C@H](NC(=O)OC)c5ccccc5)n4)cc3)cc2)c[nH]1)c1ccccc1 [Example M2]	pEC50	9.00 to 10.00
CNC(=O)N[C@@H](C(=O)N1CCC[C@H]1c1nc(-c2ccc(COCc3cccc(-c4c[nH]c([C@@H]5CCCN5C(=O)[C@H](NC(=O)NC)c5ccccc5)n4)c3)cc2)c[nH]1)c1ccccc1 [OL-23]	pEC50	9.00 to 10.00
CCNC(=O)N[C@@H](C(=O)N1CCC[C@H]1c1nc(-c2ccc(CCc3ccc(-c4c[nH]c([C@@H]5CCCN5C(=O)[C@H](NC(=O)NCC)c5ccccc5)n4)cc3)cc2)c[nH]1)c1ccccc1 [OL-12]	pEC50	10.00 to 11.70

Moving on to the next compound.
Look up pEC50 of COC(=O)N[C@H](C(=O)N1[C@@H]2C[C@@H]2C[C@H]1c1nc(-c2ccc(C#Cc3ccc(-c4c[nH]c([C@@H]5C[C@H]6C[C@H]6N5C(=O)[C@@H](NC(=O)OC)C(C)C)n4)cc3)cc2)c[nH]1)C(C)C [Example M3] and report it.
10.00 to 11.70

----------
Here the recorded pEC50 is given for each entry.
# Test system: HCV 1b genotype
# Test name: HCV Replicon assay (HCV 1b genotype)
# Type: cell-based, Hepatitis C virus
# Condition notes: Hepatitis C virus; HCV 1b genotype replicon; class symbol; read-out: Range (EC50 values against HCV 1b)
pEC50: −log10 of the molar value.

Worked set:
Structure as smiles	pEC50
COC(=O)N[C@H](C(=O)N1[C@@H]2C[C@@H]2C[C@H]1c1nc(Cl)c(-c2ccc(C#Cc3ccc(-c4[nH]c([C@@H]5C[C@H]6C[C@H]6N5C(=O)[C@@H](NC(=O)OC)C5CCOCC5)nc4Cl)cc3)cc2)[nH]1)C1CCOCC1	10.00 to 11.70
COC(=O)N[C@H](C(=O)N1C[C@@H](C)C[C@H]1c1ncc(-c2ccc([C@H]3C[C@@H]3c3ccc(-c4cnc([C@@H]5C[C@H](C)CN5C(=O)[C@@H](NC(=O)OC)C(C)C)[nH]4)cc3)cc2)[nH]1)C(C)C	10.00 to 11.70

Look up pEC50 of `COC(=O)N[C@H](C(=O)N1CCC[C@H]1c1nc(-c2cccc(C#Cc3cccc(-c4c[nH]c([C@@H]5CCCN5)n4)c3)c2)c[nH]1)C(C)C` and report it.
6.46 to 8.00

Look up pEC50 of `O=C(NC1CCCC1)N[C@@H](C(=O)N1CCC[C@H]1c1nc(-c2ccc(CCc3ccc(-c4cnc([C@@H]5CCCN5C(=O)[C@H](NC(=O)NC5CCCC5)c5ccccc5)[nH]4)cc3)cc2)c[nH]1)c1ccccc1` and report it.
10.00 to 11.70

Look up pEC50 of `COC(=O)N[C@H](C(=O)N1[C@@H](C)CC[C@H]1c1nc(-c2ccc(C#Cc3ccc(-c4c[nH]c([C@@H]5CC[C@H](C)N5C(=O)[C@@H](NC(=O)OC)C5CCOCC5)n4)cc3)cc2)c[nH]1)C1CCOCC1` and report it.
10.00 to 11.70
